PROCEDURE TEXT: Thermostability of GDP-bound mini G proteins by differential scanning fluorimetry (DSF)
Assay type: physicochemical
STATED CONDITIONS: mini-G protein alone, GDP-bound
MEASURED QUANTITY: Stability measured by DSF (°C)
Number in °C, nothing else.

Q: Item under review: Mini-G128: mini-G protein of G12, construct 8; SEQ ID NO:114 (protein, Mini-G128) MGHHHHHHENLYFQGIDALLARERRAVRRLVKILLLGADNSGKSTFLKQMRIIHGGSGGSGGTKGIVEHDFVIKKIPFKMVDVGGQRSQRQKWFQCFDGITSILFMVDSSDYNRLVESMNDFETIVNNKLFFNVSIILFLNKMDLLVEKVKTVSIKKHFPDFRGDPHRLEDVQRYLVQCFDRKRRNRSKPLFHHFTTAIDTENARFIFHAVKDTILQENLKDIMLQ . Reported Stability measured by DSF?
Result: 73

Q: Item under review: Mini-Gs/i148: mini-Gs/i1 chimera construct 48; SEQ ID NO:112 (protein, Mini-Gs/i148) MGHHHHHHENLYFQGNSKTEDQRNEEKAQREANKKIEKQLQKDKQVYRATHRLLLLGADNSGKSTIVKQMRILHGGSGGSGGTSGIFETKFQVDKVNFHMFDVGGQRDERRKWIQCFNDVTAIIFVVDSSDYNRLQEALNLFKSIWNNRWLRTISVILFLNKQDLLAEKVLAGKSKIEDYFPEFARYTTPEDATPEPGEDPRVTRAKYFIRDEFLRISTASGDGRHYCYPHFTCAVDTENARRIFNDVTDIIIKMNLRDCGLF . Reported Stability measured by DSF?
Result: 72.1

Q: Item under review: Mini-Gi146: mini-Gi1 construct 46: N-terminus re-inserted, D249 back to Leu, G217D; SEQ ID NO:110 (protein, Mini-Gi146) MGHHHHHHENLYFQGTLSAEDKAAVERSKMIDRNLREDGEKAAREVKLLLLGADNSGKSTIVKQMKIIHGGGGGGGGTTGIVETHFTFKDLHFKMFDVGGQRSERKKWIHCFEDVAAIIFCVDLSDYNRMHESMKLFDSICNNKWFTDTSIILFLNKKDLFEEKIKKSPLTICYQEYAGSNTYEEAAAYIQCQFEDLNKRKDTKEIYTHFTCATDTKNAQFIFDAVTDVIIKNNLKDCGLF . Reported Stability measured by DSF?
Result: 48

Q: Item under review: Mini Gs399: mini Gs393 with N-terminal residues 6-25 replaced and L272D reversed; binds Gβγ (protein, MINI GS399) MGHHHHHHENLYFQGNSKTEDQRNEEKAQREANKKIEKQLQKDKQVYRATHRLLLLGADNSGKSTIVKQMRILHGGSGGSGGTSGIFETKFQVDKVNFHMFDVGGQRDERRKWIQCFNDVTAIIFVVDSSDYNRLQEALNLFKSIWNNRWLRTISVILFLNKQDLLAEKVLAGKSKIEDYFPEFARYTTPEDATPEPGEDPRVTRAKYFIRDEFLRISTASGDGRHYCYPHFTCAVDTENARRIFNDCRDIIQRMHLRQYELL . Reported Stability measured by DSF?
Result: 71.6
